Target: SaCas9 (Staphylococcus aureus)
Sequence (J7RUA5 1-1053): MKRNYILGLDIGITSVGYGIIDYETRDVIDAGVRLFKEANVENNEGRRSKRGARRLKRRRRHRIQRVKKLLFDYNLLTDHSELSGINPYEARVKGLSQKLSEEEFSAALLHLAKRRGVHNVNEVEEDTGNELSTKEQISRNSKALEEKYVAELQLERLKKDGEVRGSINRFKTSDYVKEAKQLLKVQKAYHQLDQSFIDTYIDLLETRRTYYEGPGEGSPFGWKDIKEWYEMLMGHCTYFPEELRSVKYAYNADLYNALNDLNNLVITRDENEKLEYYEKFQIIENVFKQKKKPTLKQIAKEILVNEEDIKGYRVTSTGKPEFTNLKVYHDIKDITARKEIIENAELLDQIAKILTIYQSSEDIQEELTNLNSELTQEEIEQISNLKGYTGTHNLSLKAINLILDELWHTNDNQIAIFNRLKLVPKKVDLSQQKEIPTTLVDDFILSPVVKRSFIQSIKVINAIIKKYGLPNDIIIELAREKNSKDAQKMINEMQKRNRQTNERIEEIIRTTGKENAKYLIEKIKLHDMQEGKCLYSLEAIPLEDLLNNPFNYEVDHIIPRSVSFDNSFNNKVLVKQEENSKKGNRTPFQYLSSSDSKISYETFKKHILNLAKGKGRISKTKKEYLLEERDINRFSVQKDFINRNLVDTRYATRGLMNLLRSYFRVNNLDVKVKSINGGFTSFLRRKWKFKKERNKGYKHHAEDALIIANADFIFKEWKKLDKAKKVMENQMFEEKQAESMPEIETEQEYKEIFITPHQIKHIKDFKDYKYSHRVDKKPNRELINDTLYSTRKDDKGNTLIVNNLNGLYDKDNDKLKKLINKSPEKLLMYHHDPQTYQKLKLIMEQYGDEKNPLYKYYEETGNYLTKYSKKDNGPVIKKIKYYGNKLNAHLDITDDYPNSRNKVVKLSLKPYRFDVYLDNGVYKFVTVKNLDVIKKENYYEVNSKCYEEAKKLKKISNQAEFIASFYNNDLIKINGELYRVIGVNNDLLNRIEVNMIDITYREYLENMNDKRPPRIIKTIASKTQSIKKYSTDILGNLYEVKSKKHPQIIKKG
Experiment: eGFP secondary assay, SaCas9
Format: cell-based
Conditions: replicate 2, Zscore>3 selected as hit
Readout label: Z score Rep 2

INSERT INTO measurements (molecule, reported_result) VALUES
  ('CCOc1ccc(NC(=O)c2cc(=O)c3cc(CC)ccc3o2)c2cccnc12', 6.794),
  ('Cc1ccc(C)c(Nc2nc(C(N)=O)c(NC(=O)c3ccc(C)nc3Cl)s2)c1', 7.696),
  ('O=c1oc2c(O)c(O)ccc2c2c1CCCC2', 4.650),
  ('COc1ccc(N2C(=O)c3cc4ccccc4n3CC2(C)C(=O)NC2CCCCC2)c(OC)c1 (stereo not drawn)', 2.970),
  ('Cc1ccccc1CC(=O)N1CCCC(c2nc(O)c3nnn(Cc4ccc(F)cc4)c3n2)C1 (stereo not drawn)', 3.361),
  ('Cc1occc1-c1nnc2sc(-c3c[nH]c4ccccc34)nn12', 1.519),
  ('Cc1ccc(-n2ncc(C(=O)Nc3ccc(Br)cc3)c2C2CCNCC2)cc1', 7.761),
  ('CCCN(CCC)C(=O)C1CCCN(c2ccc(-c3ccccc3)nn2)C1 (stereo not drawn)', 5.767),
  ('O=C(NCCCN1CCC(N2CCCCC2)CC1)C1=Cc2sc3c(c2CS1)CCCC3', 5.937),
  ('Fc1cccc(-c2nnc3sc(-c4c[nH]c5ccccc45)nn23)c1', 1.517),
  ('CC(=O)Nc1ccc(C(=O)Nc2ccc(CCc3nc4ccccc4n3-c3ccccc3)cc2)cc1', 6.003),
  ('Cc1cccc(NC(=O)c2cc3c(=O)n4ccccc4nc3s2)c1', 3.136),
  ('CCCCn1nnnc1NCc1ccc2c(c1)n(C)c(=O)n2C', 5.639),
  ('CNC(=O)c1sc(=S)n2c1[nH]c(=O)c1cc(Br)ccc12', 3.002),
  ('CC1(C(=O)NC2CCCCC2)Cn2c(cc3ccccc32)C(=O)N1Cc1ccccc1 (stereo not drawn)', 4.485),
  ('NC(=O)c1sc(=S)n(Cc2ccccc2)c1N', 8.402),
  ('COc1ccccc1-c1nn2c(-c3cccnc3)nnc2s1', 3.970),
  ('CCCCN(CC)C(=O)C1CCCN(c2ccc(-c3ccccc3)nn2)C1 (stereo not drawn)', 4.659);

###

We begin with a simple list: items and their reported Normalized Z score 2.
Molecular target: SpCas9 (Streptococcus pyogenes serotype M1)
Sequence (Q99ZW2 whole entry): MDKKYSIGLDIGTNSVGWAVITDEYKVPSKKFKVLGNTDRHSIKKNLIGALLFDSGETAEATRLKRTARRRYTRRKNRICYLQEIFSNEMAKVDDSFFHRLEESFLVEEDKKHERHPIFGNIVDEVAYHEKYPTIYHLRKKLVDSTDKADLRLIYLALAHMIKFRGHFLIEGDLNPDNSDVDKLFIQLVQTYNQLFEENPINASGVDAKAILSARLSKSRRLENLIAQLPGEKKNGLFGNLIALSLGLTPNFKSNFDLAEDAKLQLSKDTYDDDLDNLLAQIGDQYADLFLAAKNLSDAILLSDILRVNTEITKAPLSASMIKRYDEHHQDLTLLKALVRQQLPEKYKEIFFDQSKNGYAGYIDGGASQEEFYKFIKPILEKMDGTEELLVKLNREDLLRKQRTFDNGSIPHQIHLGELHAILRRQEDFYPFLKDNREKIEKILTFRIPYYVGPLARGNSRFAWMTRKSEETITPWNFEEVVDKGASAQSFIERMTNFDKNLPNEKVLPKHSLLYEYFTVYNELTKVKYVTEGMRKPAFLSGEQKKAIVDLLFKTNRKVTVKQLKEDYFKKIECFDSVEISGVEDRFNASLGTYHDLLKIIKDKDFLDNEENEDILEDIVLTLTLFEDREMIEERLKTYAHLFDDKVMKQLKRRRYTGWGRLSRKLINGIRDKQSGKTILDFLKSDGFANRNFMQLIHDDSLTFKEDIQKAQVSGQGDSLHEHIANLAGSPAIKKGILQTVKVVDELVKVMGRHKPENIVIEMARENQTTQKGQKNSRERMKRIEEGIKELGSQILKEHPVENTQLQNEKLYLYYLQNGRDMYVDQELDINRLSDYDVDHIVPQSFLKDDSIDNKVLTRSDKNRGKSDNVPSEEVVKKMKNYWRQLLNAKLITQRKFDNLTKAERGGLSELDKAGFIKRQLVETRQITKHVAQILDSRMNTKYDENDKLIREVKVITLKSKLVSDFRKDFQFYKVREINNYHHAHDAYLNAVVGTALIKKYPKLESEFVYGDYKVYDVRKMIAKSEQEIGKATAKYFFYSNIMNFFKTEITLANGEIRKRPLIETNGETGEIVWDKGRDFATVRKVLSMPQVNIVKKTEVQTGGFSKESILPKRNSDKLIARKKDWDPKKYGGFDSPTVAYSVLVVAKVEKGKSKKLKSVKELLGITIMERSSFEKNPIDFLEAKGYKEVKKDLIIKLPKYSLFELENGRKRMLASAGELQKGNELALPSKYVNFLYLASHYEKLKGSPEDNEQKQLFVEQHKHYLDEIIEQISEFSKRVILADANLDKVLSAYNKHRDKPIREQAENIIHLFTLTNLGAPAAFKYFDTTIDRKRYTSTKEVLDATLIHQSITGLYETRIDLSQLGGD
Assay: Strand displacement assay (SDA) / cumulative activity assay (CAA), SpCas9 primary screen
Type: biochemical
Settings: Primary Screen (150 min); replicate 2
Readout label: Normalized Z score 2

INSERT INTO results (compound, readout_label, reported_result) VALUES
  ('Cc1ccc(C(=O)n2ncn(C)c2=S)cc1', 'Normalized Z score 2', 0.42),
  ('Cc1ncc(-c2ccnc(Nc3ccc(S(C)(=O)=O)cc3)n2)n1C(C)C', 'Normalized Z score 2', 0.26),
  ('CCN1C(=O)c2cccc3cccc1c23', 'Normalized Z score 2', 0.10),
  ('CCCCC(=O)Nc1ccc(N2CCC(C(N)=O)(N3CCCCC3)CC2)c(C(=O)O)c1', 'Normalized Z score 2', 0.07),
  ('CCn1c(=O)c(C(=O)Nc2nccc(C)n2)c(O)c2ccccc21', 'Normalized Z score 2', 0.23),
  ('Cn1cccc1/C=C\C(=O)O', 'Normalized Z score 2', 0.28),
  ('O=C(CCS(=O)(=O)c1ccc(Cl)cc1)Nc1nc(-c2ccncc2)cs1', 'Normalized Z score 2', 0.04),
  ('CCOC(=O)C1CCCN(Cn2nnn(-c3ccc(OC)cc3)c2=S)C1 (centres unmarked)', 'Normalized Z score 2', 0.03),
  ('COc1ccc(C(=O)Oc2cc(-c3ccc(OC)c(OC)c3)cc(=O)c3c(C)oc(C)c23)cc1', 'Normalized Z score 2', 0.19),
  ('O=C(CCS(=O)(=O)c1ccccc1)Nc1nc(-c2ccncc2)cs1', 'Normalized Z score 2', 0.06),
  ('COc1ccc(CNC(=O)c2ccc(Oc3ccnc(-c4cccc(F)c4)n3)cc2)c(OC)c1', 'Normalized Z score 2', 0.36),
  ('Cl.NC(CO)C(=O)NNCc1ccc(O)c(O)c1O (centres unmarked)', 'Normalized Z score 2', 0.32),
  ('Cc1nc2ccccc2c(C)c1CC(=O)N1CCN(c2ccc(O)cc2)CC1', 'Normalized Z score 2', 0.10),
  ('CCC(CC)NC(=O)c1ccc2ncsc2c1', 'Normalized Z score 2', 0.09),
  ('CCn1c(CCC(=O)O)nc2cc(S(N)(=O)=O)ccc21', 'Normalized Z score 2', 0.11),
  ('COc1ccc(-c2cc3c(C)nc(N)nc3n(C3CCC(OCCO)CC3)c2=O)cn1 (centres unmarked)', 'Normalized Z score 2', 0.44),
  ('COc1ccc(-c2cc(N3CCN(C(=O)c4ccc(C(C)(C)C)cc4)CC3)ncn2)cc1', 'Normalized Z score 2', 0.28),
  ('O=C(O)C(S)=C/C=C\c1ccccc1', 'Normalized Z score 2', 0.06),
  ('Cn1nc(-c2ccccc2F)c2cc(C(=O)Oc3ccc4cnccc4c3)sc21', 'Normalized Z score 2', 0.09),
  ('O=C(NCc1ccc(F)cc1)c1ccc(Oc2ccnc(-c3cccc(F)c3)n2)cc1', 'Normalized Z score 2', 0.47),
  ('Oc1c(C(c2cccs2)N2CCCCC2)ccc2cccnc12 (centres unmarked)', 'Normalized Z score 2', 0.67),
  ('CCOC(=O)C1=C(C)NN=C(Nc2cccc(C)c2C)S1', 'Normalized Z score 2', 0.07),
  ('CCc1cccc(-n2nnnc2N2CCN(C(=O)Nc3ccc(C)cc3Cl)CC2)c1', 'Normalized Z score 2', 0.21);

###

Molecular target: SpCas9 (Streptococcus pyogenes serotype M1)
Experiment: eGFP disruption assay, SpCas9, U2OS.eGFP.PEST cells
Assay type: cell-based
Settings: replicate 1
The label True is reserved for Z score Rep1 strictly under 0.2; False covers values equal to or above it.

INSERT INTO measurements (compound, assigned_label) VALUES
  ('C=CC1=C(C(=O)O)N2C(=O)[C@@H](NC(=O)C(=NOCC(=O)O)c3csc(N)n3)[C@H]2SC1.O', 'True'),
  ('COc1ccc(-c2nnc3sc(-c4cccnc4)nn23)cc1OC', 'True'),
  ('O=C(NCc1ccc2c(c1)OCO2)c1cccc(Oc2cc(-c3ccccc3)ncn2)c1', 'True'),
  ('O=C(CCS(=O)(=O)c1ccc(Cl)cc1)Nc1nc(-c2ccccn2)cs1', 'False'),
  ('COc1ccc(CNC(=O)c2ccc(Oc3ccnc(-c4cccc(F)c4)n3)cc2)c(OC)c1', 'False'),
  ('O=C(Nc1nc(-c2ccccc2)c(C(=O)c2ccccc2)s1)c1ccc2c(c1)OCCO2', 'True'),
  ('CCCCN(CC)C(=O)C1CCCN(c2ccc(-c3ccccc3C)nn2)C1 (centres unmarked)', 'True'),
  ('COc1ccc(Cc2nnc3sc(Cc4ccc(OC)c(OC)c4)nn23)cc1', 'False');
